protocol.description: CCTE_Shafer_MEA_acute_per_network_burst_electrodes_number_mean: CCTE's Neural Acute Assay for Mean Number of Electrodes in a Network Burst, Shafer Lab (AID 2284021);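 further: curves fitted for decreases only so hits reduce electrodes per burst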
Activity calls are given as the source filed them. How the source made its calls: active means hit-call score of the fitted dose curve at least 0.9, where 1 is the maximum; inactive means score below 0.9.
Respond only with the outcome that fits, drawn from active, inactive

Each molecule tested received a call. Report the one for COC(=O)N(OC)c1ccccc1COc1ccn(-c2ccc(Cl)cc2)n1 .
inactive

Continue with CCOP(=S)(OCC)SCn1c(=O)oc2cc(Cl)ccc21
active

Continue with Fc1ccc(Oc2ccnc3cc(Cl)cc(Cl)c23)cc1
inactive

Continue with CNC(=O)ON=CC(C)(C)SC
inactive

Continue with O=C(O)c1nc(Cl)ccc1Cl
inactive

Continue with CC(C)Oc1cc(-n2nc(C(C)(C)C)oc2=O)c(Cl)cc1Cl
inactive

Continue with CO/C=C(/C(=O)OC)c1ccccc1Oc1cc(Oc2ccccc2C#N)ncn1
active

Continue with Cc1c(F)c(F)c(COC(=O)C2C(/C=C(\Cl)C(F)(F)F)C2(C)C)c(F)c1F (configuration not stated)
active

Continue with CC1COC(Cn2cncn2)(c2ccc(Oc3ccc(Cl)cc3)cc2Cl)O1 (configuration not stated)
inactive

Continue with CS/C(C)=N/OC(=O)N(C)SN(C)C(=O)O/N=C(\C)SC
active

Continue with C=CCC1=C(C)[C@@H](OC(=O)[C@@H]2[C@@H](C=C(C)C)C2(C)C)CC1=O
active

Continue with CCNc1nc(Cl)nc(NC(C)C)n1
inactive
